Provide the recorded Kd for the entries that follow.
# study target: T1, EsCas13d, nuclease-dead (Eubacterium siraeum, UniProt B0MS50, R295A;H300A;R849A;H854A)
# T1 sequence: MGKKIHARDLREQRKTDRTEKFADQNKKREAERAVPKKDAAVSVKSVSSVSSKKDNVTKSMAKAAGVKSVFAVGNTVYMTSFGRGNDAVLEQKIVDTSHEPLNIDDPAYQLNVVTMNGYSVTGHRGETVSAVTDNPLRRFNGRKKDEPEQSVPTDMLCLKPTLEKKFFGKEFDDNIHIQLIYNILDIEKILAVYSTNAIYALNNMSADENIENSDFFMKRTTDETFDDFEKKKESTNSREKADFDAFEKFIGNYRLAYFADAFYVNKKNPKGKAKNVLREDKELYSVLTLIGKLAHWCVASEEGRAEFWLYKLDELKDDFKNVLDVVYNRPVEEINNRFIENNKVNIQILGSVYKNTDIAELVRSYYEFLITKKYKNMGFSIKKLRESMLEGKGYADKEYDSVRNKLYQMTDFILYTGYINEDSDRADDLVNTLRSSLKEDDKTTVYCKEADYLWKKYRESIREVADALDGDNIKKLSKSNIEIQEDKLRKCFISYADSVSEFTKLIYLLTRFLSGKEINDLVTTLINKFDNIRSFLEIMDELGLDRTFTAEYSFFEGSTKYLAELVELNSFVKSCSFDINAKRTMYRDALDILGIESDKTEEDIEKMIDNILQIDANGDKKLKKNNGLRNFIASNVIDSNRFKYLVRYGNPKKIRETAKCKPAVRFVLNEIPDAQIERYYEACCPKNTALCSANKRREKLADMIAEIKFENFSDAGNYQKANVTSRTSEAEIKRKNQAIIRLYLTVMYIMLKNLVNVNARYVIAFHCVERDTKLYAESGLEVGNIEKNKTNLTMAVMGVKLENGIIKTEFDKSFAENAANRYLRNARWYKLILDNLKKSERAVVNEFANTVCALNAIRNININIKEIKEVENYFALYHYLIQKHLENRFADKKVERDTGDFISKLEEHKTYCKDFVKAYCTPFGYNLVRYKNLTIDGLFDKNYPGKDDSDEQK
# method summary: crRNA (strand 1, pre-loaded); Mg2+; 40 mM Tris-HCl pH 7.5, 150 mM NaCl, 6 mM MgCl2, 1 mM DTT, 0.1% Tween-20, 0.2 mg/ml BSA; 25 C; 10 min per concentration, then washed
# particulars: tags: His6-TwinStrep-SUMO cleaved; N-terminal SNAP kept (SNAP-Surface 488); label: 3' end held by stalled T7 RNA polymerase
Give the value, in units of nM, as a plain number.

Ask: Bench note: what Kd did target 3 insC 3' of 7,insC 3' of 3 (mixed) RNA 1: CACCCGUGCAAAAUUGCAGGGGUCUAAAACGACCUGAAUAUUUCAGAUCAAA RNA 2: GGGAAUGGAUCCACAUCUACGAAUUCGUUUUUGAUCUGAAAUAUUCCAGGCUCUGCAGAUCGGAAGAGCACACGU show?
Result: 97

Ask: Bench note: what Kd did target 3 U8C,U22C (mixed) RNA 1: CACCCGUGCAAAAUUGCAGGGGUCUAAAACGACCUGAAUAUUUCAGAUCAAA RNA 2: GGGAAUGGAUCCACAUCUACGAAUUCGUUCUUGAUCUGAAAUACUCAGGUCUGCAGAUCGGAAGAGCACACGU show?
Result: 46

Ask: Bench note: what Kd did target 1 insA 3' of 12,insG 3' of 11 (mixed) RNA 1: CACCCGUGCAAAAAUGCAGGGGUCUAAAACUGAGCGGAUAACCUCUCUAUGG RNA 2: GGGAAUGGAUCCACAUCUACGAAUUCGUACCAUAGAGAGGAUGUAUCCGCUCACCGAGAUCGGAAGAGCACACGU show?
Result: 49

Ask: Bench note: what Kd did target 1 G15A,A18U (mixed) RNA 1: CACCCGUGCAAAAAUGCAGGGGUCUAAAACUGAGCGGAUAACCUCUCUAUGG RNA 2: GGGAAUGGAUCCACAUCUACGAAUUCGUACCAUUGAAAGGUUAUCCGCUCACCGAGAUCGGAAGAGCACACGU show?
Result: 58

Ask: Bench note: what Kd did target 2 MT 5'PFS UAG 3'PFS AAA (mixed) RNA 1: CACCCGUGCAAAAUUGCAGGGGUCUAAAACCUUCUCCAAAUUGUUUCAUCCU RNA 2: GGGAAUGGAUCCACAUCUACGAAUUCUAGAGGAUGAAACAAUUUGGAGAAGAAAAGAUCGGAAGAGCACACGU show?
Result: 2.2
